- experimentalSystem: mAChR receptors, Rat Cortical (CTX) Membranes
- conditionDetails: read-out: Ki, QNB
property: Ki (µM)
Your answer should be a plain number; it is taken to be in µM.

CC[C@@H]1SC2(CCN(C)CC2)NC1=O [AF267B] yielded Ki of 49.6

* * *

- experimentNotes: Pharmacokinetic study in dogs
- Assay type: in vivo
- conditionDetails: beagle, dog, plasma, oral; Dogs; extrapolated for 5 mg/kg
property: Cmax (ng/mL)
Your answer should be a plain number; it is taken to be in ng/mL.

CC[C@@H]1SC2(CCN(C)CC2)NC1=O [AF267B] yielded Cmax of 1080

* * *

- experimentNotes: Pharmacokinetic study in rats
- Format: in vivo
- conditionDetails: rat, plasma, po; Rats, 5 mg/kg
property: half-life (min)
Your answer should be a plain number; it is taken to be in min.

CC[C@@H]1SC2(CCN(C)CC2)NC1=O [AF267B] yielded half-life of 38.4

* * *

- experimentNotes: Pharmacokinetic study in dogs
- Assay type: in vivo
- conditionDetails: beagle, dog, plasma, po; Dogs, 5 mg/kg
property: MRT (h)
Your answer should be a plain number; it is taken to be in h.

CC[C@@H]1SC2(CCNCC2)NC1=O yielded MRT of 4.85

* * *

- experimentNotes: Pharmacokinetic study in rats
- Assay type: in vivo
- conditionDetails: rat, plasma, po; Rats, 5 mg/kg
property: Tmax

CC[C@@H]1SC2(CCN(C)CC2)NC1=O [AF267B] yielded Tmax of 15 min

* * *

- experimentNotes: Pharmacokinetic study in dogs
- Assay type: in vivo
- conditionDetails: beagle, dog, plasma, po; Dogs., 1 mg/kg
property: half-life (h)
Your answer should be a plain number; it is taken to be in h.

CC[C@@H]1SC2(CCN(C)CC2)NC1=O [AF267B] yielded half-life of 1.33

* * *

- experimentNotes: Plasma levels of AF267B and AF292 in dogs after AF267B administration (toxicokinetic, LC-MS)
- Type: in vivo, Beagle dogs
- conditionDetails: both sexes, beagle, dog, plasma, po
property: Tmax (h)
Your answer should be a plain number; it is taken to be in h.

CC[C@@H]1SC2(CCNCC2)NC1=O yielded Tmax of 3

* * *

- experimentNotes: Pharmacokinetic study in rats
- Assay type: in vivo
- conditionDetails: rat, plasma, oral; Rats; extrapolated for 10 mg/kg
property: AUC(0-inf)

CC[C@@H]1SC2(CCN(C)CC2)NC1=O [AF267B] yielded AUC(0-inf) of 1550 ng·h/mL

* * *

- experimentNotes: Pharmacokinetic study in dogs
- Format: in vivo
- conditionDetails: beagle, dog, plasma, po; Dogs, 5 mg/kg
property: Cmax (ng/mL)
Your answer should be a plain number; it is taken to be in ng/mL.

CC[C@@H]1SC2(CCNCC2)NC1=O [AF292] yielded Cmax of 1190

* * *

- experimentNotes: Plasma levels of AF267B and AF292 in dogs after AF267B administration (toxicokinetic, LC-MS)
- Type: in vivo, Beagle dogs
- conditionDetails: female, beagle, dog, plasma, po; females; read-out: T1/2 (converted)
property: half-life (h)
Your answer should be a plain number; it is taken to be in h.

CC[C@@H]1SC2(CCNCC2)NC1=O [AF292] yielded half-life of 10.6

* * *

- experimentNotes: Pharmacokinetic study in rats
- Assay type: in vivo
- conditionDetails: rat, plasma, po; Rats, 10 mg/kg
property: Cmax

CC[C@@H]1SC2(CCNCC2)NC1=O [AF292] yielded Cmax of 1910 ng/mL
